Target under test: human tau(pS422) (Homo sapiens, UniProt P10636, S739X)
Protocol summary: BIAcore kinetic screening and kinetic rates of humanized VH/VL combinations
Type: binding
Condition: 25 °C; VL17 or VL19 with VH variants
For each of the molecules below, state its kd.
Give bare numbers, in s⁻¹.

Ask: Given VL17 with VH03: anti-human tau(pS422) antibody; VH SEQ ID NO: 48, VL SEQ ID NO: 37 (antibody, V domains shown, humanized sequence) VH: QSVLESGGGLVQPGGSLRLSCAVSGFSLSSNAINWVRQAPGKGLEWVGYIAVSGNTYYASWAKGRFTISRDNSKNTLYLQMNSLRAEDTAVYYCGKSNIWGPGTLVTVSS VL: DIQMTQSPSSLSASVGDRVTITCRSSQSVRTNKLAWFQQKPGQPPKRLIYSASTLDFGVPSRFSGSGSGTEFTLTISSLQPEDFATYYCLGYFDCSIADCVAFGGGTKVEIK , state its recorded kd.
Reply: 0.00393

Continuing:
Ask: Given VL17 with VH23: anti-human tau(pS422) antibody; VH SEQ ID NO: 55, VL SEQ ID NO: 37 (antibody, V domains shown, humanized sequence) VH: EVQVLESGGGLVQPGGSLRLSCAVSGFSLSSNAINWVRQAPGKGLEWVGYIAVSGNTYYADSVKGRFTISKDNSKNTVYLQMNSLRAEDTAVYYCGKSNIWGQGTLVTVSS VL: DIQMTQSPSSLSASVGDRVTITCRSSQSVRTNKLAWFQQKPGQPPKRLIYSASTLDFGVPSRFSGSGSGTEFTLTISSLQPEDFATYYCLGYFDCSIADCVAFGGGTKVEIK , state its recorded kd.
Reply: 0.0007
